Target: PAD1 (Homo sapiens, UniProt Q9ULC6)
Sequence (Q9ULC6 1-663): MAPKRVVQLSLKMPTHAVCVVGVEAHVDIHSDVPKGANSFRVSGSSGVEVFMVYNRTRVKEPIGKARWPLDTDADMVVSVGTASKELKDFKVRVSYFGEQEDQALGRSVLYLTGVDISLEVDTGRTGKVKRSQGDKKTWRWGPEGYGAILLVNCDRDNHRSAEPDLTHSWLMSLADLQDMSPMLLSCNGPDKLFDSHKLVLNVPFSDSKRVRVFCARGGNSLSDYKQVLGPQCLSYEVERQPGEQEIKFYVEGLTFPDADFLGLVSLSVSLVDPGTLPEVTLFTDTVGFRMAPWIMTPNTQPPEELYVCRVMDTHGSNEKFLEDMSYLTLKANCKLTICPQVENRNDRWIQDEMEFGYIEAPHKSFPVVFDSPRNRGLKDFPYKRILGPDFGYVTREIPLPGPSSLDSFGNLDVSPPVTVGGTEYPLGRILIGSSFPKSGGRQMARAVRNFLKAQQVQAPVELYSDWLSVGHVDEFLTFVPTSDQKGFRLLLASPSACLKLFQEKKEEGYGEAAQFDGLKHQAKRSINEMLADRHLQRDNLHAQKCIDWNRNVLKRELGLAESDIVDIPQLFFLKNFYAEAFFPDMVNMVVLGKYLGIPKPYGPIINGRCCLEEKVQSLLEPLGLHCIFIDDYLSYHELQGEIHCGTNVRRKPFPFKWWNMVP
measured.quantity: IC50 (µM)

>  <molecule>
CN(C)c1ccc2cc(C(=O)N[C@@H](CCCNC(=N)CCl)C(=O)NCc3ccccc3)ccc2c1 [YW3-56]

>  <measured.quantity>
IC50

>  <units.of.measure>
µM

>  <numeric.value>
1.45

$$$$

----------
Target: PAD2 (Homo sapiens)
Sequence (Q9Y2J8 whole entry): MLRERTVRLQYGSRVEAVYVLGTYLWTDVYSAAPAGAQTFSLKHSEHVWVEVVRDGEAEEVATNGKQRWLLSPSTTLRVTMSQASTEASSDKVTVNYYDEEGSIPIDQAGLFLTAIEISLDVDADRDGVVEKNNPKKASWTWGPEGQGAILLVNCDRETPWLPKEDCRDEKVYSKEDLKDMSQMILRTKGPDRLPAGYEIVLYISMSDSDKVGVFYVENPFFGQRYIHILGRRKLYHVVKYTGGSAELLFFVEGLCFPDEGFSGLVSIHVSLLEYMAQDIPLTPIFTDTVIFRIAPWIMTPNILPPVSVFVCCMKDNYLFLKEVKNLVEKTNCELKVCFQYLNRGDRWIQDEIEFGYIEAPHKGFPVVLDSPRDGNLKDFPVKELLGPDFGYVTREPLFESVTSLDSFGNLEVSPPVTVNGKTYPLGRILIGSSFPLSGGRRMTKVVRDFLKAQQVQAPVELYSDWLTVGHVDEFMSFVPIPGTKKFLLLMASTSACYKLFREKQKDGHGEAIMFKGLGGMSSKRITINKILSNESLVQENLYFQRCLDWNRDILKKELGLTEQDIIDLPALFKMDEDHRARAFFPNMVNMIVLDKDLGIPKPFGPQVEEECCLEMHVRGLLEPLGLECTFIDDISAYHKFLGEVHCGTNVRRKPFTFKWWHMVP
pIC50: −log10 of the molar value.

>  <chemical.structure>
CN(C)c1ccc2cc(C(=O)N[C@@H](CCCNC(=N)CCl)C(=O)NCc3ccccc3)ccc2c1

>  <pIC50>
5.20

$$$$

----------
Target: UniProt:Q9ULW8
Sequence (Q9ULW8 1-664): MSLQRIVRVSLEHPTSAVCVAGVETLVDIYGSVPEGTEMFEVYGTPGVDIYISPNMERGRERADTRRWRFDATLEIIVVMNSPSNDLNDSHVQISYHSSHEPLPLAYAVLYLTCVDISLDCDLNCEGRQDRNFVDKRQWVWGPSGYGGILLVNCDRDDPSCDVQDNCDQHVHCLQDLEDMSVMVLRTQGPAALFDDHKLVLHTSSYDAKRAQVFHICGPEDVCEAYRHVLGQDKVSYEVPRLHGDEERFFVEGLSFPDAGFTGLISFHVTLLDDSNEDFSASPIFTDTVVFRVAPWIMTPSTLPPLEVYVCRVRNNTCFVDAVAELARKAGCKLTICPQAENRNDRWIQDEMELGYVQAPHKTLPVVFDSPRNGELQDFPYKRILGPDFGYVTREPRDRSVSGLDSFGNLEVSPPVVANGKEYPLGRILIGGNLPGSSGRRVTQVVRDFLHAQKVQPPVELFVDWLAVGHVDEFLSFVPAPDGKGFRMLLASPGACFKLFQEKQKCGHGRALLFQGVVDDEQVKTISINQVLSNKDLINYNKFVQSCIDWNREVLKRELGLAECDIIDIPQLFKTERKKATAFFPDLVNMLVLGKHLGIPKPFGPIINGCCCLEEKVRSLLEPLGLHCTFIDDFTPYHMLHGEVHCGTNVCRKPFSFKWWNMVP
pIC50: −log10 of the molar value.

>  <chemical.structure>
CN(C)c1ccc2cc(C(=O)N[C@@H](CCCNC(=N)CCl)C(=O)NCc3ccccc3)ccc2c1

>  <pIC50>
4.27

$$$$

----------
Target: mouse PAD4 (Mus musculus, UniProt Q9Z183)
Sequence (Q9Z183 whole entry): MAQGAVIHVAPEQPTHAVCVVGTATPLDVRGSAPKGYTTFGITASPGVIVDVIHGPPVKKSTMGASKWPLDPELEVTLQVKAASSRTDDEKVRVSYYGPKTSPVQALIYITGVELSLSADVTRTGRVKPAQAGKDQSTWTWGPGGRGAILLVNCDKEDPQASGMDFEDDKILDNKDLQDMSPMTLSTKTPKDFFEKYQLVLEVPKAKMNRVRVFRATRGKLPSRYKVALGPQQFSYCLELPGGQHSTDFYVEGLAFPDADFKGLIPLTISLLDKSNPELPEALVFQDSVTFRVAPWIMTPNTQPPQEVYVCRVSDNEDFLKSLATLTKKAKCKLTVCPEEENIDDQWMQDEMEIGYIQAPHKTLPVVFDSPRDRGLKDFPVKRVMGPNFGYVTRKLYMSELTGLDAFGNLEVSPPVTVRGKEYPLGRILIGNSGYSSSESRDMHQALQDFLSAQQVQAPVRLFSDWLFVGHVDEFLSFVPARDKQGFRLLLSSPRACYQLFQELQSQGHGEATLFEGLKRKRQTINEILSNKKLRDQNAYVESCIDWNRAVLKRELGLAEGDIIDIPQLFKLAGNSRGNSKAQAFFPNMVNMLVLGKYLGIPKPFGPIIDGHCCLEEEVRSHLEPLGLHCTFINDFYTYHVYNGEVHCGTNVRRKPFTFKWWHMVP
pIC50: −log10 of the molar value.
measured.quantity: pIC50

>  <chemical.structure>
CN(C)c1ccc2cc(C(=O)N[C@@H](CCCNC(=N)CCl)C(=O)NCc3ccccc3)ccc2c1

>  <tgt>
mouse PAD4 (Mus musculus, UniProt Q9Z183)

>  <numeric.value>
5.60

$$$$
